For each of the binders below, state its In vitro activity relative to native peptide (%), vs. GIP (cAMP EC50).
# system_under_test: T1, human GIP receptor (human, UniProt P48546 22-466)
# T1 sequence (looked up): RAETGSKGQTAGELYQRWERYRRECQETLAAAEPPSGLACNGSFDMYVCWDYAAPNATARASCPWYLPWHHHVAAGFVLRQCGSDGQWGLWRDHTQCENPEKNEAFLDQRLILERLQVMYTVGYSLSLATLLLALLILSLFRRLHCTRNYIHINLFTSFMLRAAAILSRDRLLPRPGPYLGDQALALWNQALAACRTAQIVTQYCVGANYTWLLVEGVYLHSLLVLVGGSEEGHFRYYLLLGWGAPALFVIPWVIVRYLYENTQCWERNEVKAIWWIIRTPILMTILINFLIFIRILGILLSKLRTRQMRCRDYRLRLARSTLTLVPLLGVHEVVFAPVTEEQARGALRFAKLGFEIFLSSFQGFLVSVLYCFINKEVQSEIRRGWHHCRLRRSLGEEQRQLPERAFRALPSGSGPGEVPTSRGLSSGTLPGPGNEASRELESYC
# experimental_details: cell-based or functional assay
Positions of bridges follow the written chain, without caps; N, C: chain ends. Non-standard residues stand in square brackets, D forms with d. No end group written: not given here. *: point of attachment. Acetyl(2-(4-imidazolyl)) = O=C(Cc1c[nH]cn1)*; Aib = CC(C)(N)C(=O)O

{"binder": "{Acetyl(2-(4-imidazolyl))}-[Aib]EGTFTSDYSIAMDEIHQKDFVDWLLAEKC (bridge 15-19) [trigonal agonist of SEQ ID NO: 91]", "result": "0.3%"}
{"binder": "{Acetyl(2-(4-imidazolyl))}-[Aib]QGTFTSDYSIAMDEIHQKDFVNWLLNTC (bridge 15-19) [trigonal agonist of SEQ ID NO: 87]", "result": "< 0.1%"}
{"binder": "H[Aib]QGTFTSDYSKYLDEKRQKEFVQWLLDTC (bridge 16-20) [trigonal agonist of SEQ ID NO: 52]", "result": "0.3%"}
{"binder": "H[Aib]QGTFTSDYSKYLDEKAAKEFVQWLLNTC (bridge 16-20) [trigonal agonist of SEQ ID NO: 29]", "result": "< 0.1%"}
{"binder": "{Acetyl(2-(4-imidazolyl))}-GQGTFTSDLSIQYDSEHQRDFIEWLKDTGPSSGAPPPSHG [trigonal agonist of SEQ ID NO: 19]", "result": "< 0.1%"}

Q: Look up and state reported In vitro activity relative to native peptide (%), vs. GIP (cAMP EC50) for H[Aib]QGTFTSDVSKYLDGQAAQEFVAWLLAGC [trigonal agonist of SEQ ID NO: 9]
Result: < 0.1%
